Target: T1, human CD20 (human, UniProt P11836 1-297)
T1 construct: whole, on cells; Always presented on cells; also called MS4A1; CD20 WT
T1 sequence (looked up): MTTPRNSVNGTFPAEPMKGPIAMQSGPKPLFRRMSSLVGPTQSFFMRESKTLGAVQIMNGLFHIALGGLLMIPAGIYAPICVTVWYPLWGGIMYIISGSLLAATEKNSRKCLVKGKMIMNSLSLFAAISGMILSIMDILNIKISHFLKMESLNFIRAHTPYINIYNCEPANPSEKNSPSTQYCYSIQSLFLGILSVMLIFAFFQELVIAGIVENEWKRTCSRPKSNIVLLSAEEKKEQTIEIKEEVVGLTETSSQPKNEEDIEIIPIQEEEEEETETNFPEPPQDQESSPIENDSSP
Assay: LigandTracer Green, 10 nM FITC-labeled mAb on SKBR3-CD20 cells, OneToOne fit, non-competitive dissociation
reported_endpoint: Kd (nM)
Quick note: give the figure in nM, leave out the unit.

binder: m9 (mIgG2c-CD20 mAb) (antibody, V domains shown, FITC-labelled antibody in the LigandTracer assay; the label positions are not defined., Mouse IgG2c hybridoma mAb; FITC-labeled in LigandTracer) VH: QAYLQQSGAELVRPGASVKMSCKASGYTFPSYNMHWVKQTPRQGLEWIGAIYPGNGDTSYNQKFKGKASQTVDKSSSTVYMQLSSLTSADSAVYFCARSRLFDSSYGWYFDVWGTGTTVTVSS VL: QIVLSQSPAILSAYPGEKVTMTCRARSSVSYIDWYQQKAGSSPKPWIYATSNLASGVPARFSGSGSGTSYSLTISRVEAEDAATYYCQQWTSNPPTFGGGTKLEIK
measured_number: 0.25

binder: m1 (mIgG2c-CD20 mAb) (antibody, V domains shown, FITC- or Alexa647-labelled in the kinetic assays; label sites not given, Mouse IgG2c hybridoma mAb; FITC- or Alexa647-labeled in the kinetic assays) VH: QAYLQQSGAELVRPGASVKMSCKASGYTFTSYNLHWVKQTPRQGLEWIGAIYPGNGDTSYNQKFKGKATLTVDKSSSTAYMQLSRLTSEDSAVYFCARSNSYGSTYWYFDVWGTGTTVTVSS VL: QIVLSQSPAVLFASPGEKVTMTCRARSSVSYMDWYQQKPRSSPKPWIYATSNLASGVPARFSGSGSGTSYSLTISRVEAEDAATYYCQQWTSNPPTFGSGTKLEIK
measured_number: 1.05

binder: m2 (mIgG2c-CD20 mAb) (antibody, V domains shown, FITC- or Alexa647-labelled in the kinetic assays; label sites not given, Mouse IgG2c hybridoma mAb; FITC- or Alexa647-labeled in the kinetic assays) VH: QAYLQQSGAELVRPGASVKMSCKASGYTFTSYNMHWVKQTPRQGLEWIGGIYPGNGDTSYNQKFKGKATLTVDKSSSTAYMQLSSLTSEDSAVYFCARYYYGSSYGAMDYWGQGTSVTVSS VL: QIVLSQSPAILSASPGEKVTMTCRASSSVSYMHWYQQKPGSSPKPWIYATSNLASGVPARFSGSGSGTSYSLTISRVEAADAATYYCHQWTFNPPTFGGGTKLEIK
measured_number: 0.21

Challenge: Form field: reported Kd of m10 (mIgG2c-CD20 mAb) (antibody, V domains shown, FITC-labelled in the LigandTracer assay; label sites not given, Mouse IgG2c hybridoma mAb; FITC-labeled in LigandTracer) VH: QAYLQQSGADLVRPGASVKMSCKASGFTFPSYNLHWVKQTPRQGLEWIGAIYPGNGDTSYNQKFKGKATLTVDKSSSTAYMQLSSLTSEDSAVYFCARSAYYGSNVWFFDVWGTGTTVTVSS VL: QIVLSQSPAILSASPGEKVTMTCRASSSVSYMDWYQQKPGSSPKPWIYATSNLASGVPTRFSGSGSGTSYSLTISRVEAEDAATYYCQQWISNPPTFGAGTKLDLK
Response given: 0.19
